All figures here come from ChEMBL document CHEMBL1138586.

Test Protocol: Half life in rat at 1 mg/kg, iv and 5 mg/kg, po
Assay type: ADME, organism-based
Run Parameters: in vivo
Each item that follows carries a reported half-life.
Response body: numeric value in h, unit text excluded.

| Smiles Text | half-life [h] |
| --- | --- |
| COc1ccc(NC(=O)c2ccc(C(=N)N(C)C)cc2)c(C(=O)Nc2ccc(Cl)cn2)c1 | 8.8 |

The record that follows has no half-life shown yet.
Fill in reported half-life for this entry: `COc1ccc(NC(=O)c2ccc(C(=N)N(C)C)cc2F)c(C(=O)Nc2ccc(Cl)cn2)c1`
5.5

###

Measured Target: Coagulation factor X (Homo sapiens)
Sequence (P00742 41-179 limits assumed): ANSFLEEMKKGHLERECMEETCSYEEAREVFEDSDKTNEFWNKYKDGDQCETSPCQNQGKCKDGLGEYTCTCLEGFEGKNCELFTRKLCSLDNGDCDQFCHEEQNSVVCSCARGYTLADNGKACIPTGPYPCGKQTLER
Sequence (P00742 235-488 limits assumed): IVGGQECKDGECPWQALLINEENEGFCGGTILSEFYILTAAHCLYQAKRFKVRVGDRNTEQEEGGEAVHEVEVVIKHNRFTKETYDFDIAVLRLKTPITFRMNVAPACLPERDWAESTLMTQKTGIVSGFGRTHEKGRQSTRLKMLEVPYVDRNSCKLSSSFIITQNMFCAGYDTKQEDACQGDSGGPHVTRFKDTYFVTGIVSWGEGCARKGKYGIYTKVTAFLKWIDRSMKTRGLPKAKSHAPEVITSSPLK
Parameter Measured: pIC50
Conceptually, pIC50 converts a concentration in mol/L into minus its log10.

| Smiles Text | pIC50 |
| --- | --- |
| N=C(c1ccc(C(=O)Nc2ccc(Cl)cc2C(=O)Nc2ccc(Cl)cn2)cc1)N1CCOCC1 | 8.70 |
| CN(C)C(=N)c1ccc(C(=O)Nc2ccc(Cl)cc2C(=O)Nc2ccc(Cl)s2)cc1 | 8.22 |

Identify measured pIC50 obtained with Coagulation factor X (Homo sapiens) for `CN(C)C(=N)c1ccc(C(=O)Nc2ccc(Cl)cc2C(=O)Nc2ccc(Cl)cn2)cn1` .
8.52

Under Coagulation factor X (Homo sapiens), report pIC50 for `CN(C)C(=N)c1ccc(C(=O)Nc2ccc(C(F)(F)F)cc2C(=O)Nc2ccc(Cl)cn2)cc1`
8.89

State pIC50 (Coagulation factor X (Homo sapiens)) of `CN(C)C(=N)c1ccc(C(=O)Nc2ccc(S(C)(=O)=O)cc2C(=O)Nc2ccc(Cl)cn2)cc1` .
8.82

Please respond with reported pIC50 (system Coagulation factor X (Homo sapiens)) for `N=C(c1ccc(C(=O)Nc2ccc(Cl)cc2C(=O)Nc2ccc(Cl)cn2)cc1)N1CCC(C(=O)O)CC1` .
8.70

Give pIC50; test system Coagulation factor X (Homo sapiens); molecule `CN(C)C(=N)c1ccc(C(=O)Nc2ccc(OC(F)(F)F)cc2C(=O)Nc2ccc(Cl)cn2)cc1`
7.77

Report value: pIC50, system: Coagulation factor X (Homo sapiens), molecule: `CN(C)C(=N)c1ccc(C(=O)Nc2ccc(Cl)cc2C(=O)Nc2ccc(Cl)nc2)cc1`
8.52

Find pIC50 for `CN(C)C(=N)c1ccc(C(=O)Nc2ccc(Cl)cc2C(=O)Nc2ccc(Cl)cn2)c(N2CCC(C(=O)O)CC2)c1` on Coagulation factor X (Homo sapiens) and write it down.
9.15

Look up Coagulation factor X (Homo sapiens) data: pIC50 of `COc1ccc(NC(=O)c2ccc(C(=N)N(C)C)cc2N2CCC(C(=O)O)CC2)c(C(=O)Nc2ccc(Cl)cn2)c1` , then report it.
9.05

Give reported pIC50 for `CN(C)C(=N)c1ccc(C(=O)Nc2ccc(Cl)cc2C(=O)Nc2ccc(Cl)cn2)c(N2CCC2)c1` (Coagulation factor X (Homo sapiens))
9.40

Determine reported pIC50 for `CN(C)C(=N)c1ccc(C(=O)Nc2ccsc2C(=O)Nc2ccc(Cl)cn2)cc1` ; test system: Coagulation factor X (Homo sapiens).
8.70

Retrieve pIC50 on Coagulation factor X (Homo sapiens); query `CCSc1ccc(NC(=O)c2ccc(C(=N)N(C)C)cc2)c(C(=O)Nc2ccc(Cl)cn2)c1`
8.89

Write pIC50 of `CN(C)C(=N)c1ccc(C(=O)Nc2ccc(OCC(=O)O)cc2C(=O)Nc2ccc(Cl)cn2)cc1` ; system used: Coagulation factor X (Homo sapiens)
8.22

Report value: pIC50, system: Coagulation factor X (Homo sapiens), molecule: `CN(C)C(=N)c1ccc(C(=O)Nc2ccc(OCC(F)(F)F)cc2C(=O)Nc2ccc(Cl)cn2)cc1`
8.00

Provide pIC50, system Coagulation factor X (Homo sapiens), entry `COc1cc(C(=N)N(C)C)ccc1C(=O)Nc1ccc(Cl)cc1C(=O)Nc1ccc(Cl)cn1`
9.30

Retrieve pIC50 on Coagulation factor X (Homo sapiens); query `CN(C)C(=N)c1ccc(C(=O)Nc2ccc(Cl)cc2C(=O)Nc2ccc(Cl)cn2)c(N2CCCCCC2)c1`
9.00

Provide pIC50, recorded with Coagulation factor X (Homo sapiens), of `CN(C)C(=N)c1ccc(C(=O)Nc2c(C(=O)Nc3ccc(Cl)cn3)cc(Cl)cc2N2CCOCC2)cc1`
8.89
